Target: canine TRPM8 (Canis lupus familiaris, UniProt Q1A7N1)
Construct: expressed in transfected cells
Sequence (Q1A7N1 1-1104): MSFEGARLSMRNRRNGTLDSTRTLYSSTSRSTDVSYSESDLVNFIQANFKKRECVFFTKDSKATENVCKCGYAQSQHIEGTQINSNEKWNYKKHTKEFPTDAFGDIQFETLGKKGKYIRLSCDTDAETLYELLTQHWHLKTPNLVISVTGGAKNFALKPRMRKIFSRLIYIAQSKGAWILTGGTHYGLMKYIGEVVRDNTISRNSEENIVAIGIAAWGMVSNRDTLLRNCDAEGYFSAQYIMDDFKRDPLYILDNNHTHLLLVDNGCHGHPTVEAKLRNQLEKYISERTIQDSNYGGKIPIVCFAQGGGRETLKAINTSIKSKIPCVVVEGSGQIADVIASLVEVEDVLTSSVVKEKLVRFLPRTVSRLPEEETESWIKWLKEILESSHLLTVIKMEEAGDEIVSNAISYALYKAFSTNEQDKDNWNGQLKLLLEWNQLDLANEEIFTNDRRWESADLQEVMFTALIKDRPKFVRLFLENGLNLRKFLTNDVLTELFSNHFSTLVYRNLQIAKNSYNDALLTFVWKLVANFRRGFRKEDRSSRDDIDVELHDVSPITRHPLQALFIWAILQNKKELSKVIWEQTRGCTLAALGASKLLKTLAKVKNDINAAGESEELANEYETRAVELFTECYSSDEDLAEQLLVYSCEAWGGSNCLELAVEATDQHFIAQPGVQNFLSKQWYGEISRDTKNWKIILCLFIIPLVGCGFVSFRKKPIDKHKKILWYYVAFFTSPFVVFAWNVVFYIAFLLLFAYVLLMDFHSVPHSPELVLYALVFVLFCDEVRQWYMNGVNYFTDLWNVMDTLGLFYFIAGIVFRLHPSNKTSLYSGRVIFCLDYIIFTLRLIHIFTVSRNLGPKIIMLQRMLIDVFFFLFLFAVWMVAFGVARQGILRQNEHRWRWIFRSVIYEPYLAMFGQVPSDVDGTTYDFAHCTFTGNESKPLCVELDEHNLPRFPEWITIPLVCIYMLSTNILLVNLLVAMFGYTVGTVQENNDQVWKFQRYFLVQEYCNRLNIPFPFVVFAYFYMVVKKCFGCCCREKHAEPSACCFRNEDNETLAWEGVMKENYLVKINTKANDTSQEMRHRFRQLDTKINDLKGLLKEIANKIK
Experiment: In vitro canine TRPM8 functional assay (Ca2+-sensitive fluorescent dye, FLIPR or FDSS, icilin challenge)
Format: cell-based
Settings: HEK293 cells stably expressing canine TRPM8; icilin at approx. 80% maximal response; eight-point dose-response; single determinations unless otherwise noted; read-out: IC50
Here, each record is paired with measured log10 of IC50 data.
Assay Endpoint: log10 of IC50 (log10 of the value in nM)

* Cc1c(N(CCCCC(F)(F)F)S(=O)(=O)CCN(CC(C)C)CC(C)C)sc2ccccc12 | 1.26
* CCC(=O)N(CCS(=O)(=O)N(CCC1CC1)c1sc2ccccc2c1C)CC(C)C | 1.63
* O=S(=O)(CCN1CCCC(F)(F)C1)N(Cc1ccc(OC(F)(F)F)cc1)c1sc2ccccc2c1Br | 0.95
* Cc1c(N(Cc2ccc(F)cc2)S(=O)(=O)CCN(CC(C)C)CC(C)C)sc2ccccc12 | 1.40
* Cc1c(N(Cc2ccc(OC(F)(F)F)cc2)S(=O)(=O)CCN(C)CCc2ccccc2)sc2ccccc12 | 1.34
* Cc1c(N(Cc2ccc(OC(F)(F)F)cc2)S(=O)(=O)CCN2CCS(=O)(=O)CC2)sc2ccccc12 | 1.48
* Cc1c(N(Cc2ccc(OC(F)(F)F)cc2)S(=O)(=O)CCN2CCCC(F)(F)C2)sc2ccccc12 | 0.70
* Cc1c(N(Cc2ccc(OC(F)(F)F)cc2)S(=O)(=O)CCN2CCCC2)sc2ccccc12 | 1.75
* Cc1c(N(Cc2ccc(OC(F)(F)F)cc2)S(=O)(=O)CCN2CCC(F)(F)C2)sc2ccccc12 | 0.95
